Provide the recorded pIC50 for the entries that follow.
Test system: Neisseria gonorrhoeae
Assay: EC50 determination: plate-based broth growth assay (absorbance at 600 nm) of Neisseria gonorrhoeae
Format: cell-based
Settings: absorbance 600 nm after 20 hours at 37° C./5% CO2, read-out: IC50 (Inhibitory concentration) against Neisseria gonorrhoeae
pIC50: −log10 of the molar value.

Look over these answered cases.
Compound | pIC50
Cc1nnc(Nc2nc3cc(C(F)(F)F)ccc3[nH]2)s1 [Example 86] | ≥ 6.00
CC(C)c1nnc(Nc2nc3cc(C(F)(F)F)ccc3o2)o1 [Example 108] | ≥ 6.00
c1nnc(Nc2nc3ccc(C4CC4)cc3o2)o1 [Example 180] | ≥ 6.00
Cc1nnc(Nc2nc3ccc(Cl)cc3o2)o1 [Example 109] | ≥ 7.00
Cc1nnc(Nc2nc3cccc(Cl)c3o2)[nH]1 [Example 121] | ≥ 7.00

Hi there! I need pIC50 for each item below, if you can.
1. CN(C)Cc1nnc(Nc2nc3ccc(Cl)cc3o2)o1 [Example 81]
2. Cn1c(Nc2nnco2)nc2ccc(Cl)cc21 [Example 92]
3. Clc1cccc2oc(Nc3nnc(CN4CCCC4)[nH]3)nc12 [Example 130]
4. CCOC(=O)c1csc(Nc2nc3cc(C(F)(F)F)ccc3o2)n1 [Example 8]
5. FC(F)(F)c1cc2[nH]c(Nc3nc4ccccc4o3)nc2cn1 [Example 170]

Given back:
1: ≥ 6.00; 2: ≥ 4.00; 3: ≥ 5.00; 4: ≥ 6.00; 5: ≥ 6.00
